Test system: OVCAR-8 ovarian
EXPERIMENT DESCRIPTION: NCI tumour cell line growth inhibition, 48 h
*1 amine or outer side, *2 acyl side, *3 side chain or, on linkers, in order; H or OH if unused. Where a SMILES comes first, the peptide text is derived from it. The star is where a group is joined. γGlu = O=C(O)[CH](CCC(=O)[*:2])N[*:1]; NHOH = ON*
I'd be grateful if you could share measured TGI for these entries.

{"COMPOUND": "COc1ccc(OC)c([N+](=O)[O-])c1-c1nc2sc(Cl)cn2c1/C=N/N=C(N)N", "RESULT": "43.1 µM"}
{"COMPOUND": "CCN(CC)CC(C(=O)Nc1c(C)cccc1C)/C(C)=N\\NC(=S)NN (configuration not stated)", "RESULT": "> 100 µM"}
{"COMPOUND": "CC(=O)Oc1ccc2c(c1)O/C(=C\\c1ccc(N(C)C)cc1)C2=O", "RESULT": "> 100 µM"}
{"COMPOUND": "NC(=O)N/N=C(\\Cc1cc(=O)oc2cc(O)ccc12)C(=O)Nc1ccccc1C(N)=O", "RESULT": "> 100 µM"}
{"COMPOUND": "COc1ccc(-c2nn3ncccc3c2-c2ccnc(Nc3ccc(F)c(F)c3)n2)cc1", "RESULT": "> 25 µM"}
{"COMPOUND": "CCOc1ccc2c(c1)[n+]([O-])c(-c1ccccc1)c(N)[n+]2[O-]", "RESULT": "> 100 µM"}

Below are 8 compounds. Give each one its TGI.
1. O=C1C(NS(=O)(=O)c2ccccc2)=C(n2ccnc2)C(=O)c2ccccc21
2. Nc1nc(N)c2cc(-c3cc4ccccc4[nH]3)ccc2n1
3. O=c1oc2ccccc2cc1P(=O)(O)O
4. COC(=O)C12C(=O)CC3CCC1C32C(=O)OC (configuration not stated)
5. O=S(=O)(c1ccccc1)N1CCC1c1ccccc1 (configuration not stated)
6. [Cu].c1ccc2c(c1)C1=NC2=NC2=NC(=NC3=NC(=NC4=NC(=N1)c1ccccc14)c1ccccc13)c1ccccc12
7. O=NN(CC1(O)OCC(O)C(O)C1O)C(Cc1c[nH]c2ccccc12)C(=O)O (configuration not stated)
8. NC(CCC(=O)NC(CCC(=O)NO)C(=O)NCC(=O)O)C(=O)O (configuration not stated) (γGlu-Glu(NHOH)-Gly-OH; configuration not given here)

1. > 100 µM
2. > 100 µM
3. > 100 µM
4. > 100 µM
5. > 100 µM
6. > 100 µM
7. > 100 µM
8. > 100 µM

Give measured TGI for every item shown.
1. Cc1cnoc1/N=C1\C=C(Nc2oncc2C)C(=O)c2ccccc21
2. CSC(=Nc1ccc([N+](=O)[O-])cc1C#N)NC(=O)c1ccccc1
3. COc1ccc(C2c3cc4c(cc3OC(N3CCOCC3)C2C)OCO4)cc1OC (configuration not stated)

> 100 µM
> 100 µM
> 100 µM

---

Test system: SK-MEL-2 melanoma
EXPERIMENT DESCRIPTION: NCI tumour cell line growth inhibition, 48 h
Can you tell me TGI for the items I'm about to list?

Could I get TGI for every one of these entries?
1. CCN(CC)CC(C(=O)Nc1c(C)cccc1C)/C(C)=N\NC(=S)NN (stereo not drawn)
2. C[N+](C)(N)Cc1nc(-c2ccc(Cl)cc2)no1
3. CC(C)Cn1cnc2c(N)nc3ccccc3c21

["> 100 µM", "> 100 µM", "> 100 µM"]
